molecular target: angiotensin II type 1 receptor (Oryctolagus cuniculus, UniProt P34976); construct: By using a specimen of isolated rabbit blood vessels; from tissue; host or cells: rabbit (New Zealand White) thoracic aorta ring; assay: Angiotensin II receptor antagonistic activity in isolated rabbit blood vessels (thoracic aorta ring, angiotensin II-induced contraction); format: cell-based; settings: 0.1 μM test compound, angiotensin II (10 nM)-induced contraction, read-out: Angiotensin II activity inhibitiom rate (%) at 0.1 μM concentration
Sequence (P34976 whole entry): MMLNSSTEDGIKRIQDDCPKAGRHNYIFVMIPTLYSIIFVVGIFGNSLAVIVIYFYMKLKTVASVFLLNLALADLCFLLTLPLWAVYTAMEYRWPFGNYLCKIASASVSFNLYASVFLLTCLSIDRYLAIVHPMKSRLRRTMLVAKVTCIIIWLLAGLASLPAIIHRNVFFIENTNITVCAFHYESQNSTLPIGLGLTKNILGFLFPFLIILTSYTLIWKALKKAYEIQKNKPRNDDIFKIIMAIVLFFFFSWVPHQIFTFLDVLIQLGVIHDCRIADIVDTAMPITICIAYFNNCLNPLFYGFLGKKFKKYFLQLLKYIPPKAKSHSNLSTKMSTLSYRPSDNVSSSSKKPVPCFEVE
I would appreciate it if you labelled entries Met when inhibition at 0.1 µM is 80% or higher, otherwise Not met.

These recorded examples may help you get a feel for the data.
ENTRY SMILES	CATEGORY
CCCCc1nc(C(C)C)n(-c2ncc(OCC)cn2)c(=O)c1Cc1ccc(-c2ccccc2-c2noc(=O)[nH]2)nc1	Not met
CCCCc1nc(C)n(-c2ncc(OCCS(C)(=O)=O)cn2)c(=O)c1Cc1ccc(-c2ccccc2-c2nnn[nH]2)nc1	Met
CCCCc1nc(C)n(-c2ncc(OCCS(C)(=O)=O)cn2)c(=O)c1Cc1ccc(-c2ccccc2-c2noc(=O)[nH]2)nc1	Met
CCCCc1nc(C2CC2)n(-c2ncc(OC)cn2)c(=O)c1Cc1ccc(-c2ccccc2-c2noc(=O)[nH]2)nc1	Not met
CCCCc1nc(C2CC2)n(-c2ncc(OCC)cn2)c(=O)c1Cc1ccc(-c2ccccc2-c2noc(=O)[nH]2)nc1	Not met

Continue with the compound presented below.
Data request: Kindly determine if inhibition at 0.1 µM recorded for CCCCc1nc(C)n(-c2ncc(OC)cn2)c(=O)c1Cc1ccc(-c2ccccc2-c2nnn[nH]2)nc1 is above or exactly 80%.
Data returned: Met
